- Tested on: P. aeruginosa
- Assay type: cell-based
- recorded.conditions: Example 5, FIG. 4
Ends that are not written are not given here.
value.type: activity against P. aeruginosa

substance | activity against P. aeruginosa
Ala-Lys-Arg- Tyr-Tyr-Gly-Tyr-Lys-Arg-Lys-Phe-Tyr-NH2 (AKRYYGYKRKFY-NH2) [P-113 Y4.5.12] | very active
Ala-Lys-Arg-Leu- Leu-Gly-Tyr-Lys-Arg-Lys-Phe-Leu-NH2 (AKRLLGYKRKFL-NH2) [P-113 L4.5.12] | also active
Ala-Lys-Gln-His-His-Gly- Tyr-Lys-Gln-Lys-Phe-His-NH2 (AKQHHGYKQKFH-NH2) [P-113 Q3.9] | also active
AKRHHGYKRKFH-NH2 [P-113] | very active

Query :: Report activity against P. aeruginosa, nothing else, for this substance: Ala-Gln-Arg-His-His- Gly-Tyr-Lys-Arg-Gln-Phe-His-NH2 (AQRHHGYKRQFH-NH2) [P-113 Q2.10]
Result :: very active
